target: Melatonin receptor type 1C (Xenopus laevis); test: Agonist activity at Melatonin receptor type 1C in Xenopus laevis melanophores assessed as induction of pigment aggregation response by microtiter plate reader based absorbance detection assay relative to melatonin
In this section, each of the compounds is paired with its reported Efficacy.
observed-property: Efficacy (%)

| compound | measured-value |
| --- | --- |
| CCCC(=O)NCCCc1ccc(F)c(OC)c1 | 89 |
| CCC(=O)NCCCc1ccc(F)c(OC)c1 | 89 |
| CCCC(=O)NC(C)Cc1ccc(F)c(OC)c1 (stereo not drawn) | 89 |
